# Test system: human lung cancer cell NCI-H460
# test.description: Tumor cell viability by MTT assay
# Type: cell-based
# protocol.conditions: Homo sapiens, NCI-H460, 96 h
pIC50: −log10 of the molar value.
experimental.readout: pIC50

Below, each entry is followed by its recorded pIC50 result.
molecule: COc1ncc(-c2cc(OCC3CC3)c3ncnc(C)c3c2)cc1NS(=O)(=O)c1ccc(F)cc1F [Example 68]
tgt: human lung cancer cell NCI-H460
pIC50: 6.47

molecule: COc1ncc(-c2cc(OC3CCCCC3)c3nc(N)nc(C)c3c2)cc1NS(=O)(=O)c1ccc(F)cc1F [Example 22]
tgt: human lung cancer cell NCI-H460
pIC50: 7.02

molecule: COc1ncc(-c2cc(O[C@H]3CCOC3)c3ncnc(C)c3c2)cc1NS(=O)(=O)c1ccc(F)cc1F [Example 51]
tgt: human lung cancer cell NCI-H460
pIC50: 7.49

molecule: COc1ncc(-c2cc(OCC3CCOCC3)c3nc(N)nc(C)c3c2)cc1NS(=O)(=O)c1ccc(F)cc1F [Example 13]
tgt: human lung cancer cell NCI-H460
pIC50: 7.68

molecule: COc1ncc(-c2cc(OC3CCN(C)CC3)c3nc(N)nc(C)c3c2)cc1NS(=O)(=O)c1ccc(F)cc1F [Example 15]
tgt: human lung cancer cell NCI-H460
pIC50: 6.18

molecule: COc1ncc(-c2cc(OC3CCOCC3)c3ncnc(C)c3c2)cc1NS(=O)(=O)c1ccc(Cl)s1 [Example 46]
tgt: human lung cancer cell NCI-H460
pIC50: 7.54

molecule: Cc1ncc(-c2cc(OC3CCOCC3)c3nc(N)nc(C)c3c2)cc1NS(=O)(=O)c1ccc(F)cc1F [Example 7]
tgt: human lung cancer cell NCI-H460
pIC50: 5.68

molecule: COc1ncc(-c2cc(OC3CCC3)c3ncnc(C)c3c2)cc1NS(=O)(=O)c1ccc(F)cc1F [Example 70]
tgt: human lung cancer cell NCI-H460
pIC50: 7.66

molecule: COc1ncc(-c2cc(OCC3(C)COC3)c3ncnc(C)c3c2)cc1NS(=O)(=O)c1ccc(F)cc1F [Example 59]
tgt: human lung cancer cell NCI-H460
pIC50: 7.77

molecule: COc1ncc(-c2cc(OCCN(C)C)c3ncnc(C)c3c2)cc1NS(=O)(=O)c1ccc(F)cc1F [Example 67]
tgt: human lung cancer cell NCI-H460
pIC50: 5.46

P = COc1ncc(-c2cc(OC)c3ncnc(C)c3c2)cc1NS(=O)(=O)c1ccc(F)cc1F [Example 72]
Q = COc1ncc(-c2cc(OC3CCCC3)c3ncnc(C)c3c2)cc1NS(=O)(=O)c1ccc(F)cc1F [Example 56]
R = COc1ncc(-c2cc(OCC3CCOC3)c3ncnc(C)c3c2)cc1NS(=O)(=O)c1ccc(F)cc1F (stereo not drawn) [Example 61]
Input line: Please list these molecules in decreasing order of pIC50. Reply with the item labels sorted in the order that was asked for.
Output line: R, Q, P

A = COc1ncc(-c2cc(OC3CCC(F)(F)CC3)c3ncnc(C)c3c2)cc1NS(=O)(=O)c1ccc(F)cc1F [Example 57]
B = COc1ncc(-c2cc(OC3CCOCC3)c3nc(N)nc(C)c3c2)cc1NS(=O)(=O)c1ccc(F)cc1Cl [Example 2]
Input line: Return label of the item with the larger pIC50. Candidates: A , B . // respond with label for picked entry
Output line: B
(B: 7.77, A: 6.35)
